Values were extracted from ChEMBL document CHEMBL3758180.

Measured pEC50, listed per entry.
# SYSTEM NAME: Mu-type opioid receptor (Homo sapiens)
# Sequence (P35372 whole entry): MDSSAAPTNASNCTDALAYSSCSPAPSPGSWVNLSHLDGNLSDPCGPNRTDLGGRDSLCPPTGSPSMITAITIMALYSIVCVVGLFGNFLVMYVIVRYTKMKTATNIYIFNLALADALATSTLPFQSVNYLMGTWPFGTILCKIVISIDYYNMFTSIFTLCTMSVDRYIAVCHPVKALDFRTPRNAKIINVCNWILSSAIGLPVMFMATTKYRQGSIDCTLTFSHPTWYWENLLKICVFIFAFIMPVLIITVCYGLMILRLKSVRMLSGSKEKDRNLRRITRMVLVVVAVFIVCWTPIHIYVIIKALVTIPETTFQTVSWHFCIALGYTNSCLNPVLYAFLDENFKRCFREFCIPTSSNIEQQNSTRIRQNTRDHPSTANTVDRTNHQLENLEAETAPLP
# ASSAY INFO: Agonist activity at human recombinant MOR expressed in CHO cells assessed as calcium mobilization by Fluo-4 AM based fluorescence analysis
Positions of bridges follow the written chain, without caps; N, C: chain ends. Non-standard residues stand in square brackets, D forms with d. Residues, ends and D or L forms follow the SMILES beside them. d1Nal = N[C@H](Cc1cccc2ccccc12)C(=O)O; d2Nal = N[C@H](Cc1ccc2ccccc2c1)C(=O)O; Dmt = Cc1cc(O)cc(C)c1C[C@H](N)C(=O)O
pEC50 (log units): -log10 of the concentration in mol/L.

Solved entries:
Cc1cc(O)cc(C)c1C[C@H](N)C(=O)N[C@@H]1CCCCNC(=O)C[C@@H](C(N)=O)NC(=O)[C@@H](Cc2cccc3ccccc23)NC(=O)[C@H](Cc2ccccc2)NC1=O (H-[Dmt][dK]F[d1Nal]D-NH2; lactam 2-5): 8.25
Cc1cc(O)cc(C)c1C[C@H](N)C(=O)N[C@@H]1CCCCNC(=O)C[C@@H](C(N)=O)NC(=O)[C@H](Cc2ccccc2)NC(=O)[C@@H](Cc2ccc3ccccc3c2)NC1=O: 7.94
Cc1cc(O)cc(C)c1C[C@H](N)C(=O)N[C@@H]1CCCCNC(=O)C[C@@H](C(N)=O)NC(=O)[C@@H](Cc2ccc3ccccc3c2)NC(=O)[C@H](Cc2ccccc2)NC1=O (H-[Dmt][dK]F[d2Nal]D-NH2; lactam 2-5): 8.44
Cc1cc(O)cc(C)c1C[C@H](N)C(=O)N[C@@H]1CCCCNC(=O)C[C@@H](C(N)=O)NC(=O)[C@H](Cc2ccccc2)NC(=O)[C@@H](Cc2cccc3ccccc23)NC1=O: 7.70

Consider now this further compound.
Need pEC50, item NC(=O)[C@@H]1CC(=O)NCCCC[C@@H](NC(=O)[C@@H](N)Cc2ccc(O)cc2)C(=O)N[C@@H](Cc2ccccc2)C(=O)N[C@@H](Cc2ccccc2)C(=O)N1 (H-Y[dK]FFD-NH2; lactam 2-5)
8.69

---

# ASSAY INFO: Retention time of compound by RP-HPLC analysis
# Assay type: physicochemical
Positions of bridges follow the written chain, without caps; N, C: chain ends. Non-standard residues stand in square brackets, D forms with d. Residues, ends and D or L forms follow the SMILES beside them. d1Nal = N[C@H](Cc1cccc2ccccc12)C(=O)O; d2Nal = N[C@H](Cc1ccc2ccccc2c1)C(=O)O; Dmt = Cc1cc(O)cc(C)c1C[C@H](N)C(=O)O
# Retention_time annotations
Numeric only. Scale: min

Cc1cc(O)cc(C)c1C[C@H](N)C(=O)N[C@@H]1CCCCNC(=O)C[C@@H](C(N)=O)NC(=O)[C@@H](Cc2ccc3ccccc3c2)NC(=O)[C@H](Cc2ccccc2)NC1=O (H-[Dmt][dK]F[d2Nal]D-NH2; lactam 2-5): 16.1
Cc1cc(O)cc(C)c1C[C@H](N)C(=O)N[C@@H]1CCCCNC(=O)C[C@@H](C(N)=O)NC(=O)[C@H](Cc2ccccc2)NC(=O)[C@@H](Cc2cccc3ccccc23)NC1=O: 16.21
NC(=O)[C@@H]1CC(=O)NCCCC[C@@H](NC(=O)[C@@H](N)Cc2ccc(O)cc2)C(=O)N[C@@H](Cc2ccccc2)C(=O)N[C@@H](Cc2ccccc2)C(=O)N1 (H-Y[dK]FFD-NH2; lactam 2-5): 20.5
Cc1cc(O)cc(C)c1C[C@H](N)C(=O)N[C@@H]1CCCCNC(=O)C[C@@H](C(N)=O)NC(=O)[C@H](Cc2ccccc2)NC(=O)[C@@H](Cc2ccc3ccccc3c2)NC1=O: 16.38
Cc1cc(O)cc(C)c1C[C@H](N)C(=O)N[C@@H]1CCCCNC(=O)C[C@@H](C(N)=O)NC(=O)[C@@H](Cc2cccc3ccccc23)NC(=O)[C@H](Cc2ccccc2)NC1=O (H-[Dmt][dK]F[d1Nal]D-NH2; lactam 2-5): 16.02

I'd like to know its Retention_time. The compound in question is NC(=O)[C@H](Cc1ccccc1)NC(=O)[C@H](Cc1ccccc1)NC(=O)[C@@H]1CCCN1C(=O)[C@@H](N)Cc1ccc(O)cc1 [ENDOMORPHIN 2]
17.25
